B1: tRNA (parent)
chain: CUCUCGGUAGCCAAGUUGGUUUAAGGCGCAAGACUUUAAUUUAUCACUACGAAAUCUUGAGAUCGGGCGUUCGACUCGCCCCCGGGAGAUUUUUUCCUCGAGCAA

# Variants of: B1
# procedureText: nonsense suppression (GFP-seq) (ratio to wild type); higher = more function; SUP4oc tRNA, yeast GFP reporter sort-seq
Variants at the floor of the assay were thinned out.
experimentalReadout: nonsense suppression

A9U G18C : ≤ 0.026
C34A U55C G66A : ≤ 0.026
U21C U76C : 1.06
A54U A60C : 0.279
G6A U63G C81U : ≤ 0.026

[in] In one line, give reported nonsense suppression of the entry G18U U55C .
[out] 0.0402

[in] In one line, give reported nonsense suppression of the entry U16G A30G C64G .
[out] ≤ 0.026

[in] In one line, give reported nonsense suppression of the entry A54C A74C .
[out] ≤ 0.026

[in] In one line, give reported nonsense suppression of the entry C3A G18C G86A .
[out] ≤ 0.026

[in] In one line, give reported nonsense suppression of the entry G10U U21C A74U .
[out] ≤ 0.026

[in] In one line, give reported nonsense suppression of the entry G26A G65A G86A .
[out] ≤ 0.026

[in] In one line, give reported nonsense suppression of the entry U16A U76C .
[out] 1.19

[in] In one line, give reported nonsense suppression of the entry A62C G85A .
[out] ≤ 0.026

[in] In one line, give reported nonsense suppression of the entry G26U G88C .
[out] ≤ 0.026

[in] In one line, give reported nonsense suppression of the entry A14U A60C G66A G67A .
[out] ≤ 0.026

[in] In one line, give reported nonsense suppression of the entry U20C A31C C79A G85C .
[out] ≤ 0.026

[in] In one line, give reported nonsense suppression of the entry C5U G85U .
[out] 0.0303

[in] In one line, give reported nonsense suppression of the entry G28C G61C .
[out] 0.386

[in] In one line, give reported nonsense suppression of the entry G15C U22C G28C .
[out] ≤ 0.026

[in] In one line, give reported nonsense suppression of the entry G85A A87G .
[out] 1.18

[in] In one line, give reported nonsense suppression of the entry C34A C68A A87U .
[out] ≤ 0.026

[in] In one line, give reported nonsense suppression of the entry G28C C34A C68G A89G .
[out] ≤ 0.026
